Test system: Euschistus heros (Neotropical Brown Stink Bug)
Assay: Activity against Euschistus heros (neotropical brown stink bug)
Assay type: in vivo
Settings: 120 h, application rate 200 ppm, sprayed soybean leaves, N2 nymphs, 5 days after infestation, read-out: effect in at least one of the two categories (mortality or growth inhibition)
Protocol: Example B6: Activity Against Euschistus heros (Neotropical Brown Stink Bug) Soybean leaves on agar in 24-well microtiter plates were sprayed with aqueous test solutions prepared from 10′000 ppm DMSO stock solutions. After drying the leaves were infested with N2 nymphs. The samples were assessed for mortality and growth inhibition in comparison to untreated samples 5 days after infestation.
readout.kind: percent effect (mortality or growth inhibition) at 200 ppm

{"columns": ["compound", "result.value"],
 "data": [
  ["CCS(=O)(=O)c1c(N2Cc3ncc(C(F)(F)F)cc3C2=O)nn2cc(C3(C#N)CC3)ccc12", "≥ 80%"],
  ["CCS(=O)(=O)c1c(N2Cc3ncc(C(F)(F)F)cc3C2=O)nn2ccc(C(F)(F)F)cc12", "≥ 80%"],
  ["CCS(=O)(=O)c1c(N2Cc3ncc(C(F)(F)F)cc3C2=O)nn2cc(C(C)(C)C#N)ccc12", "≥ 80%"]
]}

Could you now look at the following compound, please?
INPUT: Quick one: percent effect (mortality or growth inhibition) at 200 ppm for CCS(=O)(=O)c1c(N2Cc3ncc(C(F)(F)F)cc3C2=O)nn2cc(C3CC3)ccc12 [Compound P1] ?
OUTPUT: ≥ 80%

Where these numbers come from: patent US20230348496A1
